Sourced from patent US20170066831A1

// values below are reported RGA IC50
- Tgt: T1, human ST2L, full length, on cells (human, UniProt Q01638 19-556)
- T1 sequence: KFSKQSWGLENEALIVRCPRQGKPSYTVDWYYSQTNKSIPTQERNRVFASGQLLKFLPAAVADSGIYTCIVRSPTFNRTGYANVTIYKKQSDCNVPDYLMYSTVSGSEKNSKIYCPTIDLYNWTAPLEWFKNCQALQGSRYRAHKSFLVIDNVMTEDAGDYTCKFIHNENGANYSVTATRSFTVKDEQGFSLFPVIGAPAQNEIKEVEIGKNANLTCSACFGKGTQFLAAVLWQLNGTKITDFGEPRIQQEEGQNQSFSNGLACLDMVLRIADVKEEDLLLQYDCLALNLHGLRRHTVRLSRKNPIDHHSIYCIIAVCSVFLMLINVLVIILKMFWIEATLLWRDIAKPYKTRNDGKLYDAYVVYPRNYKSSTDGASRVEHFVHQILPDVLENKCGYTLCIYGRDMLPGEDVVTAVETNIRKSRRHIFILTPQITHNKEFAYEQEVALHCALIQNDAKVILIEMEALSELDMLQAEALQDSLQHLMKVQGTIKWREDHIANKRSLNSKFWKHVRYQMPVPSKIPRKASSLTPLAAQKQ
- Measurement Notes: cell-based or functional assay
Just the number in µg/mL, nothing appended.

Request: # lookup: RGA IC50 of STLM214 (antibody, V domains shown, frameworks VH3-23 / Vk-L6) VH: EVQLLESGGGLVQPGGSLRLSCAASGFTFSSYDMFWVRQAPGKGLEWVSDIKGEGGRTAYADSVKGRFTISRDNSKNTLYLQMNSLRAEDTAVYYCARDPWSTEGSFFVLDYWGQGTLVTVSS VL: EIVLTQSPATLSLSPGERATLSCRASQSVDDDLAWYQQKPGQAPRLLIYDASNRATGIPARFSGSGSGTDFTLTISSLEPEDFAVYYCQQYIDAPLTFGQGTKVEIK
Result: 2.52

Request: What about this binder? STLM215 (antibody, V domains shown, frameworks VH3-23 / Vk-L6) VH: EVQLLESGGGLVQPGGSLRLSCAASGFTFSSYDMFWVRQAPGKGLEWVSAIAGEGGRTYYADSVKGRFTISRDNSKNTLYLQMNSLRAEDTAVYYCARDPWSTEGSFFVLDYWGQGTLVTVSS VL: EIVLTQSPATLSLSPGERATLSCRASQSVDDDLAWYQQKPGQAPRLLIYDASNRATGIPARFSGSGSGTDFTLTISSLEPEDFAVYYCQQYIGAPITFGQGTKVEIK
Result: 1.3

Request: Also, STLM124 (antibody, V domains shown, frameworks VH3-23 / Vk-L6) VH: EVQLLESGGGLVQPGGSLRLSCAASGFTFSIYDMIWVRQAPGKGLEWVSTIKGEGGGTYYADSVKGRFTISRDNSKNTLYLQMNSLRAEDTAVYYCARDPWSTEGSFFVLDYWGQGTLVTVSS VL: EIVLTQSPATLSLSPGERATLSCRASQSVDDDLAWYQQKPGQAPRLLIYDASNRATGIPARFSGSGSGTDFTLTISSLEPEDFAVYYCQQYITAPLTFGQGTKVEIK please.
Result: 0.87

Request: For STLM207 (antibody, V domains shown, frameworks VH3-23 / Vk-L6) VH: EVQLLESGGGLVQPGGSLRLSCAASGFTFSSYDMIWVRQAPGKGLEWVSTIRGEGGTTAYADSVKGRFTISRDNSKNTLYLQMNSLRAEDTAVYYCARDPWSTEGSFFVLDYWGQGTLVTVSS VL: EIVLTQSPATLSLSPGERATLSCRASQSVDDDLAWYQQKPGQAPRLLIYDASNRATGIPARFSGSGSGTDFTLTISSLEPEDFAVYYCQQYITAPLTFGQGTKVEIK then?
Result: 2.3

More entries:
Request: Which RGA IC50 is listed for STLM231 (antibody, V domains shown, VH STLH201 + VL STLL273; also called S1LM231) VH: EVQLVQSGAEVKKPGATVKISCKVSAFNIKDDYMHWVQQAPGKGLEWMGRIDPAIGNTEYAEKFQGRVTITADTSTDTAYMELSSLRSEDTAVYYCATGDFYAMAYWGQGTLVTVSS VL: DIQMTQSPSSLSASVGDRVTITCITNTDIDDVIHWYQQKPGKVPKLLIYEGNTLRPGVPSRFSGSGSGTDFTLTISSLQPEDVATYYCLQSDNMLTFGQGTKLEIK ?
Result: 1.1

Request: Repeat with STLM220 (antibody, V domains shown, frameworks VH3-23 / Vk-L6) VH: EVQLLESGGGLVQPGGSLRLSCAASGFTFSFYDMFWVRQAPGKGLEWVSDIRGEGGGTAYADSVKGRFTISRDNSKNTLYLQMNSLRAEDTAVYYCARDPWSTEGSFFVLDYWGQGTLVTVSS VL: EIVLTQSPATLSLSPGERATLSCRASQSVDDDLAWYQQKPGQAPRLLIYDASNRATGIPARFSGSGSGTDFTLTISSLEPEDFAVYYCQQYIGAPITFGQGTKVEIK
Result: 0.6

Request: Item: STLM103 (antibody, V domains shown, frameworks VH3-23 / Vk-L6) VH: EVQLLESGGGLVQPGGSLRLSCAASGFTFSFYDMFWVRQAPGKGLEWVSSIRGEGGRTDYADSVKGRFTISRDNSKNTLYLQMNSLRAEDTAVYYCARDPWSTEGSFFVLDYWGQGTLVTVSS VL: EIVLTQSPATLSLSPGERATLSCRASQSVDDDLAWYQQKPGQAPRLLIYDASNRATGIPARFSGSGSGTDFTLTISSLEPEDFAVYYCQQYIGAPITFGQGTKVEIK
Result: 1.92

Request: Again, but for STLM62 (antibody, human IgG2, V domains shown, Mouse hybridoma C2494 cloned into human IgG2 background (STLM62); also called C2494) VH: EVQLQQSVAELVRPGASVKLSCTASAFNIKDDYMHWVKQRPEQGLEWIGRIDPAIGNTEYAPKFQDKATMTADTSSNTAYLQLSSLTSEDTAVYYCALGDFYAMDYWGQGTSVTVSS VL: ETTVTQSPASLSVATGEKVTIRCITNTDIDDVIHWYQQKPGEPPKLLISEGNTLRPGVPSRFSSSGYGTDFVFTIENTLSEDVADYYCLQSDNMLTFGAGTKLELK
Result: 0.11

Request: Please answer likewise for STLM211 (antibody, V domains shown, frameworks VH3-23 / Vk-L6) VH: EVQLLESGGGLVQPGGSLRLSCAASGFTFSGYAMIWVRQAPGKGLEWVSYIEGEGGETYYADSVKGRFTISRDNSKNTLYLQMNSLRAEDTAVYYCARDPWSTEGSFFVLDYWGQGTLVTVSS VL: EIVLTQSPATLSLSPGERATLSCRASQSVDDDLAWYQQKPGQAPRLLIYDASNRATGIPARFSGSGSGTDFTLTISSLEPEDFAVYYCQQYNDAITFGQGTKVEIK
Result: 2.52

Request: Thanks! And STLM108 (antibody, V domains shown, frameworks VH3-23 / Vk-L6) VH: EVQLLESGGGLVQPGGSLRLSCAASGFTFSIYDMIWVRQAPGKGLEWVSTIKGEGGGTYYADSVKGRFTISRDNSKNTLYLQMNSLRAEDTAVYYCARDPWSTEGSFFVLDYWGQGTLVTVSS VL: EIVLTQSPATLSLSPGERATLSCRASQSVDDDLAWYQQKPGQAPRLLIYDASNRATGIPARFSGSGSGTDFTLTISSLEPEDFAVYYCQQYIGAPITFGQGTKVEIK ?
Result: 2.34
